Below, each of the proteins is paired with its reported Enzyme Activity Endpoint Assay: scIgG value.
Biological target: pooled human IgG (human IgG1,2,3 and 4)
Write the number in ng/µL without appending the unit.

Here's what some known entries look like.
Enzyme Activity Endpoint Assay: scIgG reading for PRT-171 (protein) MANQEIRYSEVTPYHVTSVWTKGVTPPTDFIKGEDVFHAPYKAGQGWYDITKTFNGKDDLLCGAATAGNMLHWWFDQNKDQIKRYLEEHPEKQKINFNGEQMFDVKEAIDTKNSQLDSKLFEYFKEKAFPYLSTKHLGVFPDHVIDMFINGYRLSLTNHGPTPVKEGSKDPRGGIFDAVFTRGDQSKLLTSRHDFKEKNLKEISDLIKKELTEGKALGLSHTYANVRINHVINLWGADFDSNGNLKAIYVTDSDSNASIGMKKYFVGVNSAGKVAISAKEIKEDNIGAQVLGLFTLSTGQDSWNQTN : 0

Sure, the documented Enzyme Activity Endpoint Assay: scIgG for PRT-308 (protein) MQITSVWTKGVTPLTPEQFRENNEDVIHAPYLAHQGWYDITKAFDGKDNLLCGAATAGNMLHWWFDQNKTEIEAYLSKHPEKQKIIFNNQELFDLKAAIDTKDSQTNSQLFNYFRDKAFPNLSARQLGVMPDLVLDMFINGYYLNVGKTQSTDVNRPYQDKDKRGGIFDAVFTRGDQTTLLTARHDLKNKGLNDISTIIKQELTEGRALALSHTYANVSISHVINLWGADFDAEGNLEAIYVTDSDANASIGMKKYFVGRNAHGHVAISAKKIEGENIGAQVLGLFTLSLGKDIWQKLS is 106

Lab note: measured Enzyme Activity Endpoint Assay: scIgG of PRT-482 (protein) MVTSVWTKGVTPPTDFIKGEDVFHAPYKAGQGWYDITKTFNGKDNLLCGAATAGNMLHWWFDQNKDQIEAYLKEHPEKQKIIFNNQELFDLKAAIDTKDDQTNSKLFEYFKEKAFPYLSTKHLGVFPDHVLDMFINGYRLSLTNHGPTPVKEGSKDKRGGIFDAVFTRGVQSKLLTSRHDFKEKTLKEISDLIKQELTEGKALALSHTYANVRINHVINLWGADFDSNGNLEAIYVTDSDTNASIGMKKYFVGVNSAGKVAISAKEIEDDNIGAQVLGLFTLSTGQDIWNQTNLEHHHHHH was 738

The protein identified as PRT-252 (protein) MVTSVWTKGVTPPTNFTYGEDVLHAPYVANQGWYDITKLFNGKDDLLCGAATAGNMLHWWFDQNKEQIENYLKKHPEKQKINFNGEQMFDVKEAIDTKDSQLDSKLFEYFLEKAFPNLSTKHLGVFPDHVIDMFINGYRLSLLNHGPTPVKRGSKDPRGGIFDAVFTRGDQSKLLTNRHDFKEKTLKEISDLIKQELTEGKALGISHTYANGRINHVINLWGADFDAEGNLEAIAVTDSDSNASIGMKKYFVGVNSSGKVAISAKEIEEDNIGAQVLGLFTLSTGQDIWNQTN registered its Enzyme Activity Endpoint Assay: scIgG at 0

Summary for this protein, PRT-512 (protein) MITSVWTKGVTPPAKFTQGEDVFHAPYVANQGWYDITKAFDGGDDLLCGAATAGNMLHWWFDQNKEEIEAYLKKHPEKQKIMFGDQELLDVRKVINTKDSQTNSALFNYFKDKAFPNLSARRLGVMPDLVLDMFINGYYLNVYKTQTTDVNRTYQTKDRRGGIFDAVFTRGDQSKLLTERHDLKNKTLKEISDLIKQELTEGKALGLSHTYANVRINHVINLWGADFDSNGNLEAIYVTDSDSNASIGMKKYFVGVNSAGKVAISAKEIKEDNIGAQVLGLFTLSTGQDIWNQTNLEHHHHHH : Enzyme Activity Endpoint Assay: scIgG is 0

New cases:
Briefly, Enzyme Activity Endpoint Assay: scIgG measured for PRT-97 (protein) MANQEIRYSEVTPYHVTSVWTKGVTPPAKFTQGEDVFHAPYVANQGWYDITKTFNGKDDLLCGAATAGNMLHWWFDQNKEKIEAYLKKHPEKQKIMFGDQELLDVRKVINTKGDQTNSELFNYFRDKAFPGLSARRIGVMPDLVLDMFINGYYLNVYKTQTTDVNRTYQEKDRRGGIFDAVFTRGDQSKLLTSRHDFKEKNLKEISDLIKKELTEGKALGLSHTYANVRINHVINLWGADFDSNGNLKAIYVTDSDSNASIGMKKYFVGVNSAGKVAISAKEIKEDNIGAQVLGLFTLSTGQDSWNQTN : 0

The recorded Enzyme Activity Endpoint Assay: scIgG for entry PRT-183 (protein) MRNATEAYAKEVPHQVTSVWTKGVTPPANFTQGEDVFHAPYVANQGWYDITKTFNGKDDLLCGAATAGNMLHWWFDQNKDQIKRYLEEHPEKQKINFNGEQMFDVKEAIDTKNHQLDSKLFEYFKEKAFPYLSTKHLGVFPDHVIDMFINGYRLSLTNHGPTPVKEGSKDPRGGIFDAVFTRGDQSKLLTSRHDFKEKNLKEISDLIKKELTEGKALGLSHTYANVRINHVINLWGADFDSNGNLKAIYVTDSDSNASIGMKKYFVGVNSAGKVAISAKEIKEDNIGAQVLGLFTLSTGQDSWNQTN equals 0

According to the records, this protein PRT-88 (protein) MANQEIRYSEVTPYHVTSVWTKGVTPPAKFTQGEDVFHAPYVANQGWYDITKTFNGKDDLLCGAATAGNMLHWWFDQNKEKIEAYLKKHPEKQKIMFGDQELLDVRKVINTKGDQTNSELFNYFRDKAFPGLSARRLGVMPDLVLDMFINGYYLNVYKTQTTDVNRTYQEKDRRGGIFDAVFTRGDQSKLLTSRHDFKEKNLKEISDLIKKELTEGKALGLSHTYANVRINHVINLWGADFDSNGNLKAIYVTDSDSNASIGMKKYFVGVNSAGKVAISAKEIKEDNIGAQVLGLFTLSTGQDIWNQTN displays Enzyme Activity Endpoint Assay: scIgG of 0
